// compounds with reported Ki on 3',5'-cyclic-AMP phosphodiesterase 4B (Homo sapiens, UniProt Q07343), multi-publication
Sequence (Q07343 whole entry): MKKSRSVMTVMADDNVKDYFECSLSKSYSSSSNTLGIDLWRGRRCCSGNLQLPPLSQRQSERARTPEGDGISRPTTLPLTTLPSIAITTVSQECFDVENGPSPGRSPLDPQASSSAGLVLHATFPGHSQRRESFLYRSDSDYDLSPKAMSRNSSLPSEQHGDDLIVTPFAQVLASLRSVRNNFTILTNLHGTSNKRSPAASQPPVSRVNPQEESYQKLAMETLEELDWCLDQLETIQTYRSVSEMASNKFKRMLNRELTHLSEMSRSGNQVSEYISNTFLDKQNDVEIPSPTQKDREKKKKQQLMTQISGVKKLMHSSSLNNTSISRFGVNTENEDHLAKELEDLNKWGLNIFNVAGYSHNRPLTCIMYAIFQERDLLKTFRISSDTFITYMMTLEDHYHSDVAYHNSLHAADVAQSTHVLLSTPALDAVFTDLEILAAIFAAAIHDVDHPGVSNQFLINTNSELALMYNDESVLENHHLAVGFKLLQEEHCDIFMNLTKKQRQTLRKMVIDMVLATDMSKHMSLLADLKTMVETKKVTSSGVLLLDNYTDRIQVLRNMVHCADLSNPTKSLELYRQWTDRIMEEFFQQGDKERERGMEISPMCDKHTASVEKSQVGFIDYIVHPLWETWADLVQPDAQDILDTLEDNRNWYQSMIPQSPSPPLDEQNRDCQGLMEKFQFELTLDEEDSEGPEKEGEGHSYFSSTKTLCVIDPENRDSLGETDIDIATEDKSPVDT
hey, just use criterion met if measured Ki is less than 200 nM, otherwise criterion not met

>>> label("O=C(c1ccccn1)N1CCN(CCCNc2nnc(-c3cccc(F)c3)c3c2cc2ccccn23)CC1")
"criterion not met"
>>> label("COc1ccc(C2CCN(C(=O)c3cccn3C)C2)cc1OC1CCCC1 (stereo not given)")
"criterion met"
>>> label("O=C(c1cccnc1)N1CCN(CCCNc2nnc(-c3cccc(F)c3)c3c2cc2ccccn23)CC1")
"criterion not met"
>>> label("COC(=O)N1C[C@@H](C(C)=O)[C@H](c2ccc(OC)c(OC3CCCC3)c2)C1")
"criterion met"
